Entries annotated with measured IC50
- target.system: human full-length MKNK1 (Homo sapiens, UniProt Q9BUB5, T385D)
- Sequence (Q9BUB5 1-424 isoform Q9BUB5-2 T344D): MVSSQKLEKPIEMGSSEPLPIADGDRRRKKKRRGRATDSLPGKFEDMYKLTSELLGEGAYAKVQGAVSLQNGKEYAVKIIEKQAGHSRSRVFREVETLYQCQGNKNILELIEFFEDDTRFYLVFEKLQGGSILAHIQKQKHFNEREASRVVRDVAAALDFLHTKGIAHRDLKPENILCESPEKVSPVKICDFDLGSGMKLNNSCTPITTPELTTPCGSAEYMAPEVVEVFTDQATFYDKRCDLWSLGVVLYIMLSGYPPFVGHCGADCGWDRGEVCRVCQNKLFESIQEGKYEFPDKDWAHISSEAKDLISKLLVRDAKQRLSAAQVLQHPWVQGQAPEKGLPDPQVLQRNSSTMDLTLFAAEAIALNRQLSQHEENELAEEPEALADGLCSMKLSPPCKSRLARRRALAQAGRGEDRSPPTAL
- assay.protocol: MKNK1 kinase high ATP assay (TR-FRET)
- recorded.conditions: high ATP (2 mM final), 15 min preincubation with enzyme, GST-MKNK1 (T344D)

CN(C)[C@H]1CCN(C(=O)[C@H]2CCc3c(sc4ncnc(Nc5cc6cn[nH]c6cn5)c34)C2)C1 [Example 85] : 4.5 nM
CN(C)CCNC(=O)c1[nH]c2ncnc(Nc3cnc4[nH]ncc4c3)c2c1Br [Example 124] : 65.9 nM
O=C([C@H]1CCc2c(sc3ncnc(Nc4cnc5[nH]ncc5c4)c23)C1)N1CCOCC1 [Example 102] : 27 nM
O=C(c1[nH]c2ncnc(Nc3cc4cn[nH]c4nc3O)c2c1Br)N1CCCCC1 [Example 134] : 10.8 nM
FC(F)(F)c1c[nH]c2ncnc(Nc3cc4cn[nH]c4cn3)c12 [Example 16] : 52.9 nM

Ask | Data request, read-out IC50, for COc1nc2[nH]ncc2cc1Nc1ncnc2[nH]c(C(=O)N3CCC(N(C)C)CC3)c(Br)c12 [Example 64]
Reply | 4.2 nM

Ask | Data request, read-out IC50, for OCc1c[nH]c2ncnc(Nc3cnc4[nH]ncc4c3)c12 [Example 17]
Reply | 32.2 nM

Ask | Data request, read-out IC50, for CN(C)C(=O)[C@H]1CCc2c(sc3ncnc(Nc4cc5cn[nH]c5nc4O)c23)C1 [Example 54]
Reply | 6.9 nM
